Reference for the values: the antibiotic and cytotoxicity screens of Wong et al. (2023)

# Test system: HepG2
# assay info: cytotoxicity call (relative viability < 0.9)
# details: 10 µM
The campaign covered roughly 39,000 compounds. About 3,300 (8.5%) were called active. The sample as a whole holds a higher share of actives than the screen did.
Write down one outcome, taken from 1 (active), 0 (inactive)

Some solved cases for reference:
COc1ccc(CN2C[C@@H](C)[C@H](OC)CN(C)C(=O)c3cc(NC(=O)c4nc5ccccc5s4)ccc3OC[C@H]2C)cc1 ... 0
CO[C@H]1CN(C)C(=O)c2cc(NC(=O)NC3CCCCC3)ccc2OC[C@H](C)N(CCc2ccccc2)C[C@@H]1C ... 0
CO[C@@H]1CN(C)C(=O)c2cc(NC(=O)NC3CCCCC3)ccc2OC[C@H](C)N(CCc2ccccc2)C[C@H]1C ... 1

In this assay, the call recorded for CO[C@@H]1CN(C)C(=O)c2cc(NS(C)(=O)=O)ccc2OC[C@H](C)N(C(=O)C2CCCCC2)C[C@@H]1C was what? 1

----------
# Tested on: HepG2
# assay info: cytotoxicity call (relative viability < 0.9)
# details: 10 µM
Screen size: about 39,000 compounds; about 3,300 (8.5%) were called active. This is one part of a sample in which actives are shown more often than they occur.
Write down one outcome, taken from active, inactive

Some solved cases for reference:
C/C=C/c1cccc(-c2nc(C(=O)NCc3cccc(OC)c3)cc3c2[C@@H](CCO)N([S@](=O)C(C)(C)C)C3)c1 ... inactive
C[C@H](CO)N1C[C@H](C)[C@@H](CN(C)C(=O)Cc2cccnc2)Oc2ncc(C#Cc3ccccc3F)cc2C1=O ... inactive
C[C@@H]1CN([C@H](C)CO)S(=O)(=O)c2ccc(C#CCN(C)C)cc2O[C@@H]1CN(C)S(=O)(=O)c1cccc(F)c1 ... inactive
C[C@H]1CN([C@@H](C)CO)C(=O)Cc2cc(NC(=O)NC3CCCCC3)ccc2O[C@@H]1CN(C)S(=O)(=O)c1cn(C)cn1 ... inactive
C[C@@H]1CN([C@H](C)CO)C(=O)c2cc(Br)cnc2O[C@@H]1CN(C)Cc1ccc2c(c1)OCO2 ... inactive
C[C@@H]1CCCCO[C@@H](CN(C)S(=O)(=O)c2ccccc2)[C@@H](C)CN([C@@H](C)CO)C(=O)c2cc(NC(=O)Nc3cccc4ccccc34)ccc2O1 ... inactive
C[C@H](CO)N1C[C@H](C)[C@@H](CN(C)C(=O)Nc2ccccc2)Oc2cc(Br)ccc2S1(=O)=O ... inactive
O=C1c2ccccc2[C@@]2(Cc3ccccc3N(Cc3ccccc3)C2=O)[C@H](c2ccc(CO)cc2)N1Cc1ccccc1C(F)(F)F ... inactive
COc1ccc([C@@H]([C@H](Cc2ccccc2)OC(C)=O)N2C[C@H]3[C@H]([C@@H](OC(C)=O)c4ccccc4)ON(C)[C@H]3[C@@H]2Cc2ccccc2)cc1 ... active
C[C@@H]1CN([C@H](C)CO)S(=O)(=O)c2ccc(Br)cc2O[C@H]1CN(C)C(=O)c1cnccn1 ... inactive

In this assay, the call recorded for C[C@@H]1CCCCO[C@@H](CN(C)C(=O)CCC(F)(F)F)[C@@H](C)CN([C@@H](C)CO)C(=O)c2cc(NS(=O)(=O)c3ccc(F)cc3)ccc2O1 was what? inactive

Entry Cn1cnc(S(=O)(=O)N[C@@H]2C=C[C@@H](CC(=O)Nc3ccccc3)O[C@@H]2CO)c1 please inactive

Entry COc1ccc([C@@H]([C@H](Cc2ccccc2)OC(C)=O)N2C[C@@H]3C(=NO[C@H]3[C@@H](OC(C)=O)c3ccccc3)[C@@H]2Cc2ccccc2)cc1 please inactive

Entry Cc1noc(C)c1NC(=O)Nc1ccc2c(c1)C(=O)N([C@H](C)CO)C[C@H](C)[C@@H](CN(C)CC1CCCCC1)OCCCC[C@H](C)O2 please inactive

----------
# Tested on: HepG2
# assay info: cytotoxicity call (relative viability < 0.9)
# details: 10 µM
The campaign covered roughly 39,000 compounds. About 3,300 (8.5%) were called active. The sample as a whole holds a higher share of actives than the screen did.
Write down one outcome, taken from yes (1) = active, no (0) = inactive

Some solved cases for reference:
C[C@@H]1CN([C@H](C)CO)C(=O)c2cc(NC(=O)Nc3cccc4ccccc34)ccc2O[C@@H]1CN(C)Cc1ccc(Oc2ccccc2)cc1 ... yes (1)
COc1ccc(CN(C)C[C@H]2Oc3ccc(NC(=O)Nc4cccc5ccccc45)cc3C(=O)N([C@@H](C)CO)C[C@@H]2C)cc1 ... no (0)
C[C@@H]1CCCCO[C@H](CN(C)Cc2ccc(Cl)c(Cl)c2)[C@@H](C)CN([C@H](C)CO)C(=O)c2cc(NC(=O)Cc3ccccc3)ccc2O1 ... yes (1)
COc1ccc(CN(C)C[C@H]2Oc3ccc(NC(=O)Nc4cccc5ccccc45)cc3C(=O)N([C@H](C)CO)C[C@@H]2C)cc1 ... no (0)
C[C@@H]1CN([C@@H](C)CO)C(=O)c2cc(NC(=O)Cc3ccccc3)ccc2O[C@@H](C)CCCCO[C@@H]1CN(C)Cc1ccccc1 ... no (0)

In this assay, the call recorded for C[C@@H]1CN([C@H](C)CO)C(=O)c2cc(NC(=O)Nc3cccc4ccccc34)ccc2O[C@H]1CN(C)Cc1ccc(Oc2ccccc2)cc1 was what? yes (1)

Entry C[C@H](CO)N1C[C@H](C)[C@@H](CN(C)Cc2ccc(Oc3ccccc3)cc2)Oc2ccc(NC(=O)Nc3cccc4ccccc34)cc2C1=O please no (0)

Entry C[C@@H]1CN([C@@H](C)CO)C(=O)c2cc(NC(=O)Nc3cccc4ccccc34)ccc2O[C@@H]1CN(C)Cc1ccc(Oc2ccccc2)cc1 please yes (1)

Entry C[C@H](CO)N1C[C@H](C)[C@H](CN(C)Cc2ccc(Oc3ccccc3)cc2)Oc2ccc(NC(=O)Nc3cccc4ccccc34)cc2C1=O please yes (1)

Entry C[C@@H]1CN([C@@H](C)CO)C(=O)c2cc(NC(=O)Cc3ccccc3)ccc2O[C@@H](C)CCCCO[C@H]1CN(C)Cc1ccccc1 please no (0)

Entry COc1ccc(CN(C)C[C@@H]2Oc3ccc(NC(=O)Nc4cccc5ccccc45)cc3C(=O)N([C@H](C)CO)C[C@H]2C)cc1 please no (0)

Entry COc1ccc(CN(C)C[C@@H]2Oc3ccc(NC(=O)Nc4cccc5ccccc45)cc3C(=O)N([C@@H](C)CO)C[C@H]2C)cc1 please no (0)

Entry COc1ccc(CN(C)C[C@H]2Oc3ccc(NC(=O)Nc4cccc5ccccc45)cc3C(=O)N([C@@H](C)CO)C[C@H]2C)cc1 please no (0)

Entry C[C@@H]1CN([C@@H](C)CO)C(=O)c2cc(NC(=O)Nc3cccc4ccccc34)ccc2O[C@H]1CN(C)Cc1ccc(Oc2ccccc2)cc1 please no (0)

----------
# Test system: HepG2
# assay info: cytotoxicity call (relative viability < 0.9)
# details: 10 µM
About 3,300 (8.5%) of roughly 39,000 compounds were called active. The list comes from a sample in which actives are over-represented; it also holds close analogues and randomly drawn compounds.
recorded endpoint: cytotoxicity call

CCCNC(=O)N(C)C[C@@H]1Oc2ncc(-c3ccc(C(=O)N(C)C)cc3)cc2C(=O)N([C@H](C)CO)C[C@H]1C ... inactive
CCOC(=O)[C@H](Cc1c[nH]c2ccccc12)NC(=O)Cn1cc(CN2C(=O)COC[C@H]2c2ccccc2)nn1 ... active
C[C@@H]1CCCCO[C@@H](CN(C)CC2CCCCC2)[C@H](C)CN([C@H](C)CO)C(=O)c2cc(NC(=O)Nc3ccccc3)ccc2O1 ... active
C[C@H]1CN([C@@H](C)CO)C(=O)c2cc(NC(=O)Nc3ccc(F)cc3)ccc2O[C@H]1CN(C)Cc1ccc(C(F)(F)F)cc1 ... inactive
C[C@H](CO)N1C[C@H](C)[C@H](CN(C)CC2CCCCC2)OCCCC[C@H](C)Oc2ccc(NC(=O)Nc3ccccc3)cc2C1=O ... active

Moving on to another molecule below.
Name the recorded cytotoxicity call for C[C@@H]1CCCCO[C@@H](CN(C)Cc2ccc(Cl)c(Cl)c2)[C@@H](C)CN([C@H](C)CO)C(=O)c2cc(NC(=O)CCC(F)(F)F)ccc2O1 . inactive

----------
# System: HepG2
# assay info: cytotoxicity call (relative viability < 0.9)
# details: 10 µM
In all, about 39,000 compounds went through this assay and about 3,300 (8.5%) were called active. What follows is part of a selection rich in actives, with near analogues and random picks from the rest.
Write down one outcome, taken from y (active), n (inactive)

Some solved cases for reference:
C[C@@H](CO)N1CC[C@H](CN(C)Cc2ccc(Oc3ccccc3)cc2)Oc2c(NC(=O)c3ccncc3)cccc2C1=O ... n
CC(=O)N(C)C[C@H]1Oc2ncc(C#C[C@@H](C)O)cc2C(=O)N([C@@H](C)CO)C[C@H]1C ... n
C[C@@H]1CCCCO[C@H](CN(C)Cc2ccccc2)[C@@H](C)CN([C@@H](C)CO)C(=O)c2cc(NS(=O)(=O)c3cccs3)ccc2O1 ... n
C[C@@H]1CCCCO[C@H](CN(C)CC2CCCCC2)[C@H](C)CN([C@@H](C)CO)C(=O)c2cc(NS(=O)(=O)c3cccs3)ccc2O1 ... y
C[C@@H]1CN(S(=O)(=O)N2CCN(C(=O)c3[nH]nc4ccccc34)CC2)C[C@H](C)O1 ... n

In this assay, the call recorded for O=C(C[C@@H]1C=C[C@@H](NS(=O)(=O)c2ccccc2)[C@H](CO)O1)NCc1ccncn1 was what? n

Entry C[C@H]1CCCCO[C@H](CN(C)Cc2ccc3c(c2)OCO3)[C@@H](C)CN([C@@H](C)CO)C(=O)c2cc(NC(=O)Nc3ccc(C(F)(F)F)cc3)ccc2O1 please y

Entry COc1ccc2c3c(n(c2c1)C)[C@@H](CO)N(Cc1cc(cc(c1)OC)OC)C[C@]13CN(C1)S(=O)(=O)c1cn(cn1)C please n

Entry C[C@@H]1CCCCO[C@H](CN(C)CC2CCCCC2)[C@H](C)CN([C@H](C)CO)C(=O)c2cc(NS(=O)(=O)c3cccs3)ccc2O1 please n

Entry CC(=O)Nc1nonc1N1CCCC1=O please n

Entry C[C@H]1CCCCO[C@@H](CN(C)Cc2ccccc2)[C@@H](C)CN([C@@H](C)CO)C(=O)c2cc(NS(=O)(=O)c3cccs3)ccc2O1 please y

Entry NC(=O)c1ccc[n+](CC(=O)N2CCCCC2)c1 please n

Entry COc1cc([C@@H](O)CO)ccc1OS(=O)(=O)O please n

Entry C[C@@H]1CN([C@@H](C)CO)C(=O)Cc2cc(NC(=O)CCN3CCOCC3)ccc2O[C@@H]1CN(C)CC1CC1 please n

Entry C[C@H](CO)N1C[C@H](C)[C@@H](CN(C)S(=O)(=O)c2ccccc2)Oc2c(NS(=O)(=O)c3ccc(F)cc3)cccc2C1=O please n
